# Assayed system: ΔF508-CFTR (Homo sapiens, UniProt P13569, DEL508-508)
# Construct: expressed in transfected cells
# Sequence (P13569 with tags, fused parts or gaps DEL508-508): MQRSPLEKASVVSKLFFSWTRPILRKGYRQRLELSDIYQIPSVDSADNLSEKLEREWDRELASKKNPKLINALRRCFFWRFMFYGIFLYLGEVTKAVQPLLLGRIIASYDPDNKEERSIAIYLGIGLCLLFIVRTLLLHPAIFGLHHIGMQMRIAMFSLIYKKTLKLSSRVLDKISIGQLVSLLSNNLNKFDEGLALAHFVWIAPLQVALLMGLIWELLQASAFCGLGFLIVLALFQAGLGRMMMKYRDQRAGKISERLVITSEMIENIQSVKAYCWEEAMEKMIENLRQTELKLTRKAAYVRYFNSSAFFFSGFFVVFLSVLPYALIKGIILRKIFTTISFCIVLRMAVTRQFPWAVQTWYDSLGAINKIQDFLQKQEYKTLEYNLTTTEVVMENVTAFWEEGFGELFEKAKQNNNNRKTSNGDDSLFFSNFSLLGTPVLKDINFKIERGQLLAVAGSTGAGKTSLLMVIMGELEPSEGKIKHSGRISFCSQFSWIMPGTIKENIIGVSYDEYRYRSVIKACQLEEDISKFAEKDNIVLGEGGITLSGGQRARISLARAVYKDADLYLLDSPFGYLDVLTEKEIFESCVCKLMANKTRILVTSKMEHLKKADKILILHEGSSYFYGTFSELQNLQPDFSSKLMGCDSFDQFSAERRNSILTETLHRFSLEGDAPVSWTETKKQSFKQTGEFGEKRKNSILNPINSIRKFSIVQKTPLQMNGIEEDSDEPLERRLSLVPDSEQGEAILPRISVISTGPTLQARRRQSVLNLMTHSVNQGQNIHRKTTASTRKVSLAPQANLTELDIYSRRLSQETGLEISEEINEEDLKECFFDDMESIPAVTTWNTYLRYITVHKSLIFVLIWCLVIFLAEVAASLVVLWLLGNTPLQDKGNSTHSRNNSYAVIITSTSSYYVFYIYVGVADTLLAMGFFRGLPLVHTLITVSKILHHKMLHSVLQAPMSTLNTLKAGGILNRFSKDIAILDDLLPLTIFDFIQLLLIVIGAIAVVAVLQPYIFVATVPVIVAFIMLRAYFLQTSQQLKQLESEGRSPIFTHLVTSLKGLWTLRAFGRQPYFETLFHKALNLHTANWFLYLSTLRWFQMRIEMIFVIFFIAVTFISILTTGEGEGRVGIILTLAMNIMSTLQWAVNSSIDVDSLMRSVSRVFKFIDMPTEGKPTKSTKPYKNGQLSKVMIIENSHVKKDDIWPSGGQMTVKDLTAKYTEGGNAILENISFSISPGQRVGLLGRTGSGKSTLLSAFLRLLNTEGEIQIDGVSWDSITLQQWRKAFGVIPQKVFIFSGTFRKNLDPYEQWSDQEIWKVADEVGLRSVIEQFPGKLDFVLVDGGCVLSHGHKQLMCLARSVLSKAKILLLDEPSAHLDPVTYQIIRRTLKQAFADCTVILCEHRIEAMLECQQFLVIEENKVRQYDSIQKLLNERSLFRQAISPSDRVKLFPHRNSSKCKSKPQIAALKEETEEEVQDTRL
# Method notes: Membrane potential optical (FRET/VIPR) assay, identification of potentiator compounds
# Assay type: cell-based
# Condition notes: Table 3; relative efficacy; assay not given
Property: % Activity

These solved cases illustrate the format of a correct answer.
- Compound: "CCc1ccc(NC(=O)c2c[nH]c3ccccc3c2=O)cc1N"
  Test result: "++ (between 25% to 100%)"
- Compound: "O=C(Nc1cccnc1)c1c[nH]c2ccccc2c1=O"
  Test result: "+ (<25%)"
- Compound: "Cc1cccc(NC(=O)c2c[nH]c3ccccc3c2=O)n1"
  Test result: "+ (<25%)"
- Compound: "Cc1cccc2[nH]cc(C(=O)Nc3cc(O)c(C4(C)CCCCC4)cc3F)c(=O)c12"
  Test result: "++ (between 25% to 100%)"
- Compound: "Cc1cccc(C(C)C)c1NC(=O)c1c[nH]c2ccccc2c1=O"
  Test result: "++ (between 25% to 100%)"

### Prompt So what % Activity did `COc1ccccc1-c1cc2cc[nH]c2cc1NC(=O)c1c[nH]c2ccccc2c1=O` get with ΔF508-CFTR (Homo sapiens, UniProt P13569, DEL508-508)?
### Response ++ (between 25% to 100%)

### Prompt What would you report for `Cc1nc2cc(NC(=O)c3c[nH]c4ccccc4c3=O)ccc2s1` ?
### Response ++ (between 25% to 100%)

### Prompt Next up: `CCOc1ccc(OCC)c(NC(=O)c2c[nH]c3ccccc3c2=O)c1`
### Response ++ (between 25% to 100%)

### Prompt Please do the same for `CC(C)(C)OC(=O)N1CCC2(CCNc3cc(NC(=O)c4c[nH]c5ccccc5c4=O)ccc32)CC1` as well.
### Response ++ (between 25% to 100%)

### Prompt Okay, and `Cc1cccc2[nH]cc(C(=O)Nc3ccc(N4[C@H](C)CC[C@H]4C)cc3C(F)(F)F)c(=O)c12` ?
### Response ++ (between 25% to 100%)
